Molecular target: HLA-DQ2 (Homo sapiens, UniProt P01909+P01920)
Sequence (P01920 33-261 limits assumed, other chains not shown): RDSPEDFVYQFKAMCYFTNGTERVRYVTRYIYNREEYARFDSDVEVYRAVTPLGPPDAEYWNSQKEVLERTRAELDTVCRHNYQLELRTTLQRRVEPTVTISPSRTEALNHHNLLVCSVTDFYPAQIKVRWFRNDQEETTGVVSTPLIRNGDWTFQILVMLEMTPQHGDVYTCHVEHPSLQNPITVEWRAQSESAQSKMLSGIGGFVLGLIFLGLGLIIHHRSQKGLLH
Experiment: Inhibition of IL-2 secretion by TCR transductants stimulated by α-gliadin peptides presented by HLA-DQ2 expressing K562 cells (ELISA)
Type: cell-based
Conditions: inhibition of IL-2 secretion at 200 uM; tested as trans racemate unless otherwise noted; lines naming several Examples = stereoisomer mixture of those Examples
Procedure: Three commercially available analogues of the DQ2 binding molecules of the invention were tested for their ability to inhibit stimulation of T cell receptor (TCR) transductants in the presence of HLA-DQ2 expressing cells presenting known α-gliadin epitopes. […]

[
  {
    "molecule": "O=C(Cc1c(F)cccc1Cl)N1CCN(C(=O)C2CC2c2ccc3c(c2)OCO3)CC1 (centres unmarked) [Example 23]",
    "% Inh at 200 uM": "C (C=25-49%)"
  },
  {
    "molecule": "O=C(COc1ccc(F)cc1)N1CCN(C(=O)[C@@H]2C[C@H]2c2ccccc2)CC1 [Example 108]",
    "% Inh at 200 uM": "A (A=≥75%)"
  },
  {
    "molecule": "O=C(c1ccco1)N1CCN(C(=O)C2CC2c2ccc3c(c2)OCO3)CC1 (centres unmarked) [Example 7]",
    "% Inh at 200 uM": "B (B=50-74%)"
  },
  {
    "molecule": "O=C(COc1ccccc1O)N1CCN(C(=O)[C@@H]2C[C@H]2c2ccccc2)CC1 [Example 105]",
    "% Inh at 200 uM": "B (B=50-74%)"
  },
  {
    "molecule": "COC(=O)c1cccc(OCC(=O)N2CCN(C(=O)[C@@H]3C[C@H]3c3ccccc3)CC2)c1 (relative stereo) [Example 109]",
    "% Inh at 200 uM": "A (A=≥75%)"
  },
  {
    "molecule": "O=C(COc1cccc(O)c1)N1CCN(C(=O)[C@@H]2C[C@H]2c2ccccc2)CC1 [Example 96]",
    "% Inh at 200 uM": "B (B=50-74%)"
  },
  {
    "molecule": "CN(C)c1cccc(C(=O)N2CCN(C(=O)C3CC3c3ccc4c(c3)OCO4)CC2)c1 (centres unmarked) [Example 20]",
    "% Inh at 200 uM": "B (B=50-74%)"
  },
  {
    "molecule": "O=C(CSc1ccc(F)cc1Cl)N1CCN(C(=O)[C@@H]2C[C@H]2c2ccccc2)CC1 (relative stereo) [Example 59]",
    "% Inh at 200 uM": "C (C=25-49%)"
  },
  {
    "molecule": "COc1ccc([C@H]2C[C@@H]2C(=O)N2CCN(C(=O)CSC3CCCC3)CC2)cc1 [Example 28]",
    "% Inh at 200 uM": "B (B=50-74%)"
  },
  {
    "molecule": "Cc1ccccc1SCC(=O)N1CCN(C(=O)[C@@H]2C[C@H]2c2ccccc2)CC1 (relative stereo) [Example 50]",
    "% Inh at 200 uM": "C (C=25-49%)"
  },
  {
    "molecule": "COCC(=O)N1CCN(C(=O)[C@@H]2C[C@H]2c2ccccc2)CC1 (relative stereo) [Example 42]",
    "% Inh at 200 uM": "C (C=25-49%)"
  },
  {
    "molecule": "O=C(CSc1ccc(F)cc1)N1CCN(C(=O)C2CC2c2ccc3c(c2)OCO3)CC1 (centres unmarked) [Example 5]",
    "% Inh at 200 uM": "B (B=50-74%)"
  },
  {
    "molecule": "O=C(O)CCNCC(=O)N1CCN(C(=O)[C@@H]2C[C@H]2c2ccccc2)CC1 [Example 111]",
    "% Inh at 200 uM": "D (D=0-24%)"
  },
  {
    "molecule": "O=C(CSC1CCCCCC1)N1CCN(C(=O)[C@@H]2C[C@H]2c2ccccc2)CC1 (relative stereo) [Example 69]",
    "% Inh at 200 uM": "A (A=≥75%)"
  },
  {
    "molecule": "O=C(CSC1CCCC1)N1CCN(C(=O)C2CC2c2cccs2)CC1 (centres unmarked) [Example 14]",
    "% Inh at 200 uM": "A (A=≥75%)"
  },
  {
    "molecule": "COc1cccc([C@H]2C[C@@H]2C(=O)N2CCN(C(=O)CSC3CCCC3)CC2)c1 [Example 27]",
    "% Inh at 200 uM": "B (B=50-74%)"
  },
  {
    "molecule": "O=C(COc1ccc(O)cc1)N1CCN(C(=O)[C@@H]2C[C@H]2c2ccccc2)CC1 [Example 95]",
    "% Inh at 200 uM": "C (C=25-49%)"
  },
  {
    "molecule": "O=C(COC1CCCCCC1)N1CCN(C(=O)[C@@H]2C[C@H]2c2ccccc2)CC1 (relative stereo) [Example 52]",
    "% Inh at 200 uM": "A (A=≥75%)"
  },
  {
    "molecule": "Cc1ccc(SCC(=O)N2CCN(C(=O)[C@@H]3C[C@H]3c3ccccc3)CC2)c(C)c1 [Example 70]",
    "% Inh at 200 uM": "A (A=≥75%)"
  },
  {
    "molecule": "O=C(COc1ccccc1)N1CCN(C(=O)[C@@H]2C[C@H]2c2ccccc2)CC1 (relative stereo) [Example 48]",
    "% Inh at 200 uM": "B (B=50-74%)"
  },
  {
    "molecule": "O=C(CSC1CCCC1)N1CCN(C(=O)[C@@H]2C[C@H]2c2ccccc2F)CC1 [Example 33]",
    "% Inh at 200 uM": "B (B=50-74%)"
  },
  {
    "molecule": "O=C(CN1CCCC1=O)N1CCN(C(=O)[C@@H]2C[C@H]2c2ccccc2)CC1 [Example 115]",
    "% Inh at 200 uM": "D (D=0-24%)"
  },
  {
    "molecule": "CC1(c2ccccc2O)CC1C(=O)N1CCN(C(=O)CSC2CCCC2)CC1 (centres unmarked) [Example 67]",
    "% Inh at 200 uM": "C (C=25-49%)"
  },
  {
    "molecule": "O=C(CSC1CCCC1)N1CCN(C(=O)[C@H]2C[C@@H]2c2cccc(O)c2)CC1 [Example 29]",
    "% Inh at 200 uM": "B (B=50-74%)"
  },
  {
    "molecule": "NC(=O)c1ccccc1SCC(=O)N1CCN(C(=O)[C@@H]2C[C@H]2c2ccccc2)CC1 [Example 73]",
    "% Inh at 200 uM": "C (C=25-49%)"
  },
  {
    "molecule": "O=C(Cc1cccs1)N1CCN(C(=O)C2CC2c2ccc3c(c2)OCO3)CC1 (centres unmarked) [Example 24]",
    "% Inh at 200 uM": "A (A=≥75%)"
  },
  {
    "molecule": "NC(=O)c1ccc(SCC(=O)N2CCN(C(=O)[C@@H]3C[C@H]3c3ccccc3)CC2)cc1 (relative stereo) [Example 85]",
    "% Inh at 200 uM": "C (C=25-49%)"
  },
  {
    "molecule": "O=C(O)c1ccccc1OCC(=O)N1CCN(C(=O)[C@@H]2C[C@H]2c2ccccc2)CC1 [Example 97]",
    "% Inh at 200 uM": "C (C=25-49%)"
  },
  {
    "molecule": "O=C(CSC1CCCC1)N1CCN(C(=O)[C@H]2C[C@@H]2c2ccc(F)c(F)c2)CC1 [Example 35]",
    "% Inh at 200 uM": "A (A=≥75%)"
  },
  {
    "molecule": "O=C(CCS(=O)(=O)c1ccccc1)N1CCN(C(=O)C2CC2c2ccc3c(c2)OCO3)CC1 (centres unmarked) [Example 16]",
    "% Inh at 200 uM": "A (A=≥75%)"
  },
  {
    "molecule": "COc1cccc(SCC(=O)N2CCN(C(=O)[C@@H]3C[C@H]3c3ccccc3)CC2)c1 [Example 62]",
    "% Inh at 200 uM": "C (C=25-49%)"
  },
  {
    "molecule": "O=C(CSc1cccc(O)c1)N1CCN(C(=O)[C@@H]2C[C@H]2c2ccccc2)CC1 [Example 87]",
    "% Inh at 200 uM": "C (C=25-49%)"
  }
]
